Reference source for all entries: paper PMC7265341

test.target: CDK20/Cyclin H (Homo sapiens)
Sequence (Q8IZL9 whole entry): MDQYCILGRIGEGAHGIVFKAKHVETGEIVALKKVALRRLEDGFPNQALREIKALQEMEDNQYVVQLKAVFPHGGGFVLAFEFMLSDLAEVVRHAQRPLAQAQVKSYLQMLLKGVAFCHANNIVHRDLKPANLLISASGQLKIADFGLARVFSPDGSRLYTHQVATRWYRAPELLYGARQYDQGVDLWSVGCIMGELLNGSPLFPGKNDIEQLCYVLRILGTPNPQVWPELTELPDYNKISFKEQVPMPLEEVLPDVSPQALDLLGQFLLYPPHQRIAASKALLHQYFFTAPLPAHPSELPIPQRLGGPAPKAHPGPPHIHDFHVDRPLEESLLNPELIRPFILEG
Sequence (P51946 whole entry partner): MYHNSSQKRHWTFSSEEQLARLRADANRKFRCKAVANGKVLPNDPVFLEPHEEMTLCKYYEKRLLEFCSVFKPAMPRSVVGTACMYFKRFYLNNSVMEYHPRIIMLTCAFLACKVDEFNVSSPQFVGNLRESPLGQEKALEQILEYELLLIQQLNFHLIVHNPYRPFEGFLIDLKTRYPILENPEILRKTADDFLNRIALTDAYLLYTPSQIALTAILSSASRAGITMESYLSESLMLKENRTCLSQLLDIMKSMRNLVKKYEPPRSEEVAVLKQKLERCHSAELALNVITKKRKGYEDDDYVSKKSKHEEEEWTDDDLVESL
assay.name: NanoBRET live-cell target engagement, NanoLuc-CDK20/Cyclin H in HEK-293
Assay type: binding
measurement.conditions: CDK20 with probe 4 at […]; read-out: Cheng-Prusoff IC50 Replot: IC50
readout: IC50 (µM)
Please respond with the number in µM and leave the unit unwritten.

State its IC50 for this compound: CNC(=O)c1ccccc1Nc1nc(Nc2ccc(N3CCNCC3)cc2)ncc1Cl 1.5

---

test.target: CDK3/Cyclin E1 (Homo sapiens)
Sequence (Q00526 whole entry): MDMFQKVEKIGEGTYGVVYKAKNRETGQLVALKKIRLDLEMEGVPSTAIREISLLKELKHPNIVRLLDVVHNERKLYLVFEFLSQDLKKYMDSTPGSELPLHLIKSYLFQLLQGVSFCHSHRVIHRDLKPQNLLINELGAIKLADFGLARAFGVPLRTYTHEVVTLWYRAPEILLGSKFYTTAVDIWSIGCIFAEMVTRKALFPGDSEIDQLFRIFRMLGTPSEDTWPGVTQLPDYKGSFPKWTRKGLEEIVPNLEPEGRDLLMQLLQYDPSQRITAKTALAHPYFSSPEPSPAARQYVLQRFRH
Sequence (P24864 whole entry partner): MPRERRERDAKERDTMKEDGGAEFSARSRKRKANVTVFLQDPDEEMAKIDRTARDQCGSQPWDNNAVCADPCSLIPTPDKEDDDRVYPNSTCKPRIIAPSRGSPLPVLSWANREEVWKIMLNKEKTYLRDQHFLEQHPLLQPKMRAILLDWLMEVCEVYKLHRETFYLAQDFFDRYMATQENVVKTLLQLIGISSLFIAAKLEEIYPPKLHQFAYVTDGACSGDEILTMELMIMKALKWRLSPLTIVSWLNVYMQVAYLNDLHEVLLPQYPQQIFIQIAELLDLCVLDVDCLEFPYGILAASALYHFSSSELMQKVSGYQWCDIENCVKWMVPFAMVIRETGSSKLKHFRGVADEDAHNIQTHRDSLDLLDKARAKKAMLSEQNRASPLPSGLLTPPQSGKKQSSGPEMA
assay.name: NanoBRET live-cell target engagement, CDK3-NanoLuc/Cyclin E1 in HEK-293
Assay type: binding
measurement.conditions: 10µM; average of experiments; read-out: CDK3/E1 Inhibition at 10µM (%)
Use Fulfilled when the recorded inhibition at 10 µM is no lower than 90%; use Not fulfilled when it is lower.

Take a look at these entries with their results.
[[record]]
smiles_str = "CC(C)CC(=O)Nc1[nH]nc2c1CN(C(=O)C1CCN(C)CC1)C2(C)C"
label_class = "Fulfilled"

[[record]]
smiles_str = "CN1C/C=C/CCOc2cccc(c2)-c2ccnc(n2)Nc2cccc(c2)C1"
label_class = "Fulfilled"

[[record]]
smiles_str = "CN(C)C/C=C/C(=O)Nc1ccc(C(=O)N2CCC[C@@H](Nc3ncc(Cl)c(-c4c[nH]c5ccccc45)n3)C2)cc1"
label_class = "Not fulfilled"


Evaluate CC(C)[C@H](CO)Nc1nc(Nc2ccc(C(=O)O)c(Cl)c2)c2ncn(C(C)C)c2n1 : inhibition at 10 µM at minimum 90%? Not fulfilled

Evaluate CN1CCN(c2ccc(Nc3ncc4cc5n(c4n3)C3(CCCCC3)CNC5=O)nc2)CC1 : inhibition at 10 µM at minimum 90%? Not fulfilled
